# Subject of test: GST-Bcl-XL (Homo sapiens, UniProt Q07817)
# Sequence (Q07817 whole entry): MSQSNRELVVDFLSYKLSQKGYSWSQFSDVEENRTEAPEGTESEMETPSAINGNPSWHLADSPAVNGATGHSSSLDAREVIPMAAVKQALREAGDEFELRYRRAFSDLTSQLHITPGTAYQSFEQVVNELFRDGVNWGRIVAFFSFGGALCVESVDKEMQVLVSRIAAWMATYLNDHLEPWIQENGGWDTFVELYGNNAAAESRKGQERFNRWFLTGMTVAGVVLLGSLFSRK
Readout label: pIC50
Scale: pIC50 equals -log10([C]), with [C] in mol/L.

Please review the entries below; each comes with its answer.
{"Smiles text": "O=C(NS(=O)(=O)c1ccc(CN(CCSc2ccccc2)Cc2c(F)cccc2Cl)cc1)c1ccc(OC(F)(F)F)cc1", "pIC50": 4.33}
{"Smiles text": "COc1cc(OC)cc(C(=O)NS(=O)(=O)c2ccc(CN(CCSc3ccccc3)Cc3c(F)cccc3Cl)cc2)c1", "pIC50": 4.28}
{"Smiles text": "O=C(NS(=O)(=O)c1ccc(CN(CCSc2ccccc2)Cc2c(F)cccc2Cl)cc1)c1ccc(CCc2ccccn2)cc1", "pIC50": 4.25}
{"Smiles text": "O=C(NS(=O)(=O)c1ccc(CN(CCSc2ccccc2)Cc2c(F)cccc2Cl)cc1)c1ccccc1", "pIC50": 4.54}
{"Smiles text": "COc1cccc(CN(CCSc2ccccc2)Cc2ccc(S(=O)(=O)NC(=O)c3sc(-c4ccccc4)nc3C)cc2)c1", "pIC50": 4.30}

**Query** // lookup pIC50 | system=GST-Bcl-XL (Homo sapiens, UniProt Q07817) | key= "COc1cccc(CN(CCSc2ccccc2)Cc2ccc(S(=O)(=O)NC(=O)c3cccc4ccccc34)cc2)c1"
**Result** 4.14

**Query** // lookup pIC50 | system=GST-Bcl-XL (Homo sapiens, UniProt Q07817) | key= "[N-]=[N+]=NS(=O)(=O)c1ccc(CN(CCSc2ccccc2)Cc2ccc(S(=O)(=O)NC(=O)c3cccc4ccccc34)cc2)cc1"
**Result** 4.18

* * *

# Subject of test: Mcl-1 (Mus musculus)
# Sequence (P97287 whole entry, the tested form may be a part): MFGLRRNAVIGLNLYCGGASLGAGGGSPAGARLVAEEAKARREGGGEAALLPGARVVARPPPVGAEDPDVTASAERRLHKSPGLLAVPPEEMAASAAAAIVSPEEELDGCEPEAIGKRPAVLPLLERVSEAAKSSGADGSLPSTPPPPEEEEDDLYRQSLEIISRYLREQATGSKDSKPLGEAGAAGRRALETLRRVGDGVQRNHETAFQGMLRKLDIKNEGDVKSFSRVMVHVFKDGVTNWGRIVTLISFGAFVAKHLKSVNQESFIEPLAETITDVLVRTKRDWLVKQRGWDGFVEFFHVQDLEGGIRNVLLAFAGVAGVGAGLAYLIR
# Protocol text: Multifragment KTGS screen against Mcl-1 (5 TA x 38 SZ per well), LC-MS/MS
# Test parameters: multifragment KTGS, 190 combinations per well, 10 μM Mcl-1, 20 μM each fragment, pH 7.4, 37 °C, 10 h; peak area with protein / without protein
Readout label: Amplification coefficient 5TA x 38SZ
Write the value as a bare number.

{"Compound": "COc1cccc(CN(CCSc2ccccc2)Cc2ccc(S(=O)(=O)NC(=O)c3sc(-c4ccccc4)nc3C)cc2)c1", "Test value": 25}
{"Compound": "[N-]=[N+]=NS(=O)(=O)c1ccc(CN(CCSc2ccccc2)Cc2ccc(S(=O)(=O)NC(=O)c3cccc4ccccc34)cc2)cc1", "Test value": 23}
{"Compound": "O=C(NS(=O)(=O)c1ccc(CN(CCSc2ccccc2)Cc2ccc3c(c2)OCO3)cc1)c1ccc(-c2ccc(F)cc2)cc1", "Test value": 10}
{"Compound": "NS(=O)(=O)c1ccc(CN(CCSc2ccccc2)Cc2ccc(S(=O)(=O)NC(=O)c3cccc(NCCc4ccccc4)c3)cc2)cc1", "Test value": 12}
{"Compound": "NS(=O)(=O)c1ccc(CN(CCSc2ccccc2)Cc2ccc(S(=O)(=O)NC(=O)Cn3c4ccccc4c4ccccc43)cc2)cc1", "Test value": 10}

**Query** I am curious: what Amplification coefficient 5TA x 38SZ value has been reported for "O=C(NS(=O)(=O)c1ccc(CN(CCSc2ccccc2)Cc2c(F)cccc2Cl)cc1)c1ccc(OC(F)(F)F)cc1" ?
**Result** 7

**Query** I am curious: what Amplification coefficient 5TA x 38SZ value has been reported for "O=C(NS(=O)(=O)c1ccc(CN(CCSc2ccccc2)Cc2c(F)cccc2Cl)cc1)c1cccc2ccccc12" ?
**Result** 8

* * *

# Subject of test: Mcl-1 (Mus musculus)
# Protocol text: Multifragment KTGS screen against Mcl-1 (5 TA x 38 SZ per well), LC-MS/MS
# Test parameters: multifragment KTGS, 190 combinations per well, 10 μM Mcl-1, 20 μM each fragment, pH 7.4, 37 °C, 10 h; peak area with protein / without protein
Response field label: string, one of Satisfied (Amplification coefficient 5TA x 38SZ strictly below 10) or Not satisfied.

Solved entries:
{"Smiles text": "O=C(NS(=O)(=O)c1ccc(NCCSc2ccccc2)c([N+](=O)[O-])c1)c1ccc(CCc2ccccn2)cc1", "Category label": "Satisfied"}
{"Smiles text": "CC(C)(C)c1ccc(-c2ccc(S(=O)(=O)NC(=O)c3ccc4c(ccn4Cc4ccc(C(F)(F)F)cc4C(F)(F)F)c3)cc2)cc1", "Category label": "Not satisfied"}
{"Smiles text": "O=C(Cn1c2ccccc2c2ccccc21)NS(=O)(=O)c1ccc(CN(CCSc2ccccc2)Cc2ccc3c(c2)OCO3)cc1", "Category label": "Not satisfied"}
{"Smiles text": "O=C(NS(=O)(=O)c1ccc(CN(CCSc2ccccc2)Cc2ccc3c(c2)OCO3)cc1)c1ccc(OC(F)(F)F)cc1", "Category label": "Satisfied"}
{"Smiles text": "COc1cccc(CN(CCSc2ccccc2)Cc2ccc(S(=O)(=O)NC(=O)c3ccc(Cc4ccc(OC)c(OC)c4OC)cc3)cc2)c1", "Category label": "Satisfied"}

**Query** Answer whether the molecule "Cn1cc(C(=O)C2CCCCC2)c2cc(C(=O)NS(=O)(=O)c3ccc(CN(CCSc4ccccc4)Cc4ccc5c(c4)OCO5)cc3)ccc21" has Amplification coefficient 5TA x 38SZ strictly less than 10
**Result** Not satisfied

**Query** Answer whether the molecule "NS(=O)(=O)c1ccc(CN(CCSc2ccccc2)Cc2ccc(S(=O)(=O)NC(=O)c3ccc(-c4ccccn4)cc3)cc2)cc1" has Amplification coefficient 5TA x 38SZ strictly less than 10
**Result** Not satisfied

* * *

# Subject of test: GST-tagged mouse Mcl-1-(152–309) (Mus musculus, UniProt P97287)
# Sequence (P97287 152-309): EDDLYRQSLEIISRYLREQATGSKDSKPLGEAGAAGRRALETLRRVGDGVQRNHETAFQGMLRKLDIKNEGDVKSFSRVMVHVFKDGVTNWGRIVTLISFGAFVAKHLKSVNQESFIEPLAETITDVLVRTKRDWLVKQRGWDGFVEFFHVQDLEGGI
# Protocol text: Fluorescence polarization competitive binding assay, GST-Mcl-1 / FITC-Bim-BH3
# Test parameters: IC50 on Mcl-1
Readout label: IC50 (µM)
Please state the figure in µM; there is no need to write the unit.

Please review the entries below; each comes with its answer.
{"Compound": "O=C(NS(=O)(=O)c1ccc(CN(CCSc2ccccc2)Cc2c(F)cccc2Cl)cc1)c1ccc(-c2ccccn2)cc1 [SZ15TA25]", "Reading unit": "µM", "Test value": 15.3}
{"Compound": "O=C(NS(=O)(=O)c1ccc(CN(CCSc2ccccc2)Cc2c(F)cccc2Cl)cc1)c1ccccc1 [SZ15TA1]", "Reading unit": "µM", "Test value": 9.7}
{"Compound": "Cc1nc(-c2ccccc2)sc1C(=O)NS(=O)(=O)c1ccc(CN(CCSc2ccccc2)Cc2c(F)cccc2Cl)cc1 [SZ15TA3]", "Reading unit": "µM", "Test value": 5.8}
{"Compound": "O=C(NS(=O)(=O)c1ccc(CN(CCSc2ccccc2)Cc2c(F)cccc2Cl)cc1)c1ccc(CCc2ccccn2)cc1 [SZ15TA17]", "Reading unit": "µM", "Test value": 20.2}
{"Compound": "O=C(NS(=O)(=O)c1ccc(CN(CCSc2ccccc2)Cc2c(F)cccc2Cl)cc1)c1ccc(OC(F)(F)F)cc1 [SZ15TA8]", "Reading unit": "µM", "Test value": 7.6}

**Query** // lookup IC50 | system=GST-tagged mouse Mcl-1-(152–309) (Mus musculus, UniProt P97287) | key= COc1cc(OC)cc(C(=O)NS(=O)(=O)c2ccc(CN(CCSc3ccccc3)Cc3c(F)cccc3Cl)cc2)c1 [SZ15TA5]
**Result** 13.4

**Query** // lookup IC50 | system=GST-tagged mouse Mcl-1-(152–309) (Mus musculus, UniProt P97287) | key= O=C(NS(=O)(=O)c1ccc(CN(CCSc2ccccc2)Cc2c(F)cccc2Cl)cc1)c1cccc2ccccc12 [SZ15TA7]
**Result** 15.4

* * *

# Subject of test: GST-tagged mouse Mcl-1-(152–309) (Mus musculus)
# Protocol text: Fluorescence polarization competitive binding assay, GST-Mcl-1 / FITC-Bim-BH3
# Test parameters: FP, compound at 50 µM
Measured inhibition at 50 µM by item
Please state the figure in %; there is no need to write the unit.

Please review the entries below; each comes with its answer.
{"Compound": "COc1cccc(CN(CCSc2ccccc2)Cc2ccc(S(=O)(=O)NC(=O)c3cccc4ccccc34)cc2)c1", "Test value": 87.3}
{"Compound": "NS(=O)(=O)c1ccc(CN(CCSc2ccccc2)Cc2ccc(S(=O)(=O)NC(=O)c3ccc4oc(-c5ccccc5)cc4c3)cc2)cc1", "Test value": 12.4}
{"Compound": "COc1cccc(CN(CCSc2ccccc2)Cc2ccc(S(=O)(=O)NC(=O)c3ccc(C(c4c[nH]c5ccccc45)c4c[nH]c5ccccc45)cc3)cc2)c1", "Test value": 42.5}

**Query** // lookup inhibition at 50 µM | system=GST-tagged mouse Mcl-1-(152–309) (Mus musculus) | key= "O=C(NS(=O)(=O)c1ccc(-c2ccc(Oc3ccccc3)cc2)cc1)c1cccc2ccccc12"
**Result** 87.8

* * *

# Subject of test: GST-Bcl-XL (Homo sapiens, UniProt Q07817)
Measured pIC50 by item
Scale: pIC50 equals -log10([C]), with [C] in mol/L.

{"Compound": "Cc1noc(C)c1-c1ccc(S(=O)(=O)NC(=O)c2ccc(CN3C(=O)C(c4ccc(F)cc4F)=C(c4ccc(F)cc4F)C3=O)cc2)cc1 [SZ32TA42]", "pIC50": 4.36}
{"Compound": "Cc1nc(-c2ccccc2)sc1C(=O)NS(=O)(=O)c1ccc(CN(CCSc2ccccc2)Cc2c(F)cccc2Cl)cc1 [SZ15TA3]", "pIC50": 4.44}
{"Compound": "[N-]=[N+]=NS(=O)(=O)c1ccc(CN(CCSc2ccccc2)Cc2ccc(S(=O)(=O)NC(=O)c3ccccc3)cc2)cc1 [SZ9TA1]", "pIC50": 4.54}

From here, focus on the item given below.
**Query** // lookup pIC50 | system=GST-Bcl-XL (Homo sapiens, UniProt Q07817) | key= O=C(NS(=O)(=O)c1ccc(CN(CCSc2ccccc2)Cc2c(F)cccc2Cl)cc1)c1ccc(-c2ccccn2)cc1 [SZ15TA25]
**Result** 4.26
